So I've got a bunch of molecules here, and I need their inhibition values.
assay.target: G-protein coupled receptor 55 (Homo sapiens) (UniProt Q9Y2T6)
Sequence (Q9Y2T6 whole entry, looked up): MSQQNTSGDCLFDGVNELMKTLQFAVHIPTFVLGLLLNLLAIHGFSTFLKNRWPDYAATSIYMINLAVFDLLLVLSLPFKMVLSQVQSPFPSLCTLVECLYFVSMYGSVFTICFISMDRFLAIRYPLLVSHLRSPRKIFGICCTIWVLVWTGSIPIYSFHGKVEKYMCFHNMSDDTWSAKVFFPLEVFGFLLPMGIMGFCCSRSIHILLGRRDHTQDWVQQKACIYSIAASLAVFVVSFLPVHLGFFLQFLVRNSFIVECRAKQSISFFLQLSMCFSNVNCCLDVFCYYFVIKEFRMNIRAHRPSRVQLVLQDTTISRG
test.summary: GPR55 antagonists blocking LPI-driven arrestin recruitment, primary screen, imaging, U2OS, beta-arrestin-GFP, LPI agonist (AID 2013);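 further: U2OS cells stably carrying GPR55 and arrestin-GFP stimulated by 5 µM LPI near EC80; imaged beta-arrestin-GFP aggregate spots per cell after agonist stimulation; plate controls were LPI-stimulated DMSO wells for no effect and DMSO wells without LPI for full effect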
test.parameters: U2OS GPR55 beta-arrestin-GFP translocation imaging, LPI antagonism; at 10 µM; hits give high values
Among all 290,000 compounds or so, about 370 (0.13%) were called active. The sample holds actives, similar compounds and a random draw of the others, so the mix is not that of the screen. Results with a measured potency or affinity are listed apart.
Note: unit % is implicit; provide only the numeric part.

In: What value of inhibition on G-protein coupled receptor 55 (Homo sapiens) (UniProt Q9Y2T6) does O=C(c1ccccc1)N(Cc1ccccc1)Cc1ccccc1 have?
Out: 11.6

In: Moving on to the next molecule: O=C1CC(N2CCN(c3ccccn3)CC2)C(=O)N1c1ccc(Cl)cc1 (stereo unspecified)
Out: -0.1

In: Moving on to the next molecule: CCCCC(NC(C)=O)c1nc2ccccc2n1CCCC (stereo unspecified)
Out: 7.3

In: Moving on to the next molecule: CCOC(=O)/C(C#N)=C/c1cn(CCC(=O)O)nc1-c1cccc(Br)c1
Out: 1.6

In: Moving on to the next molecule: CC12CCC(C(=O)N(Cc3ccccc3)Cc3ccccc3)(OC1=O)C2(C)C (stereo unspecified)
Out: 3.1

In: Moving on to the next molecule: O=C(CSc1n[nH]c(-c2cc(Cl)ccc2Cl)n1)NCCN1C(=O)CSC1=O
Out: 2.2

---

assay.target: G-protein coupled receptor 55 (Homo sapiens) (UniProt Q9Y2T6)
test.summary: GPR55 antagonists blocking LPI-driven arrestin recruitment, primary screen, imaging, U2OS, beta-arrestin-GFP, LPI agonist (AID 2013);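 further: U2OS cells stably carrying GPR55 and arrestin-GFP stimulated by 5 µM LPI near EC80; imaged beta-arrestin-GFP aggregate spots per cell after agonist stimulation; plate controls were LPI-stimulated DMSO wells for no effect and DMSO wells without LPI for full effect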
test.parameters: U2OS GPR55 beta-arrestin-GFP translocation imaging, LPI antagonism; at 10 µM
About 370 (0.13%) of roughly 290,000 compounds were called active.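 How the source made its calls: active means spots per cell inhibited over 60%, with over 100 cells counted and total cytoplasm intensity under 500,000; inconclusive means wells with under 100 cells, flagged as likely toxic; inactive means the rest.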 The sample holds actives, similar compounds and a random draw of the others, so the mix is not that of the screen. Entries with a potency or affinity are not part of this list.
Choose the fitting class; nothing outside Y = active, N = inactive is accepted.

In: Which result was noted for this molecule in the test: COc1cccc(-c2csc(N3CCN(Cc4ccccc4)CC3)n2)c1
Out: N

In: Moving on to the next molecule: Cc1c(N=Cc2c(O)n(C)c(=O)c3ccccc23)c(=O)n(-c2ccccc2)n1C
Out: N

In: Moving on to the next molecule: O=[N+]([O-])c1c(Nc2ccc(O)cc2)cc(Cl)c2nonc12
Out: Y

In: Moving on to the next molecule: Cc1cc(C)n2nc(-c3ccccc3)c(-c3ccccc3)c2n1
Out: N

In: Moving on to the next molecule: CC(C)(C)c1nn(-c2ccccc2)c2[nH]c(=O)c(CNCc3ccco3)cc12
Out: N

In: Moving on to the next molecule: Cc1cccc(Cc2cnc(N3C(=N)SC(c4ccccc4)C3=O)s2)c1 (centres undefined)
Out: N

In: Moving on to the next molecule: CC(C)(C)C1=CC=C(C(C)(C)C)C(=O)C1=O
Out: N

In: Moving on to the next molecule: Cc1nn(-c2ccccc2)c2[nH]c(=O)c(CNCc3ccc4c(c3)OCO4)cc12
Out: N

In: Moving on to the next molecule: N=C1SCC(=O)N1c1ncc(Cc2cccc(Cl)c2)s1
Out: Y

In: Moving on to the next molecule: Cc1nnsc1Sc1ccccc1C(=O)O
Out: N

In: Moving on to the next molecule: Cc1ccc(CNC(=O)c2nnn(CC(=O)Nc3cccc(C)c3C)c2N)cc1
Out: N

In: Moving on to the next molecule: COc1ccc2[nH]cc(C(O)CN3CCC(C(N)=O)CC3)c2c1 (centres undefined)
Out: N

In: Moving on to the next molecule: CN(C)c1cc(Nc2cccc(O)c2)c([N+](=O)[O-])c2nonc12
Out: N

In: Moving on to the next molecule: Nc1nc(C23CC4CC(CC(C4)C2)C3)cs1
Out: N

In: Moving on to the next molecule: COc1ccc2cc(C(=O)C3CCCN(C(=O)c4cc5nc(C)cc(C)n5n4)C3)ccc2c1 (centres undefined)
Out: N

In: Moving on to the next molecule: O=C1CSC(c2cccc(Cl)c2Cl)N1c1ccccn1 (centres undefined)
Out: N

In: Moving on to the next molecule: CCNc1cc(Nc2c(C)n(C)n(-c3ccccc3)c2=O)c([N+](=O)[O-])c2nonc12
Out: N

In: Moving on to the next molecule: CC1=NOC(=O)/C1=C\c1ccc(-c2ccc(Cl)cc2Cl)o1
Out: N

In: Moving on to the next molecule: O=C(O)c1cccc(Nc2cc(Cl)c3nonc3c2[N+](=O)[O-])c1
Out: N

In: Moving on to the next molecule: CCOc1ccc(NCc2cc3c(C(C)(C)C)nn(-c4ccccc4)c3[nH]c2=O)cc1
Out: N

In: Moving on to the next molecule: N#C/C(=C\c1ccc(N2CCOCC2)o1)C(=O)Nc1ccc(O)cc1
Out: N

In: Moving on to the next molecule: CCN1C(=O)N(CC)C(O)(c2ccccc2)C1(O)c1ccccc1 (centres undefined)
Out: N

In: Moving on to the next molecule: CC(C)Sc1cc(N2CCCC2)nc(-c2ccccc2Cl)n1
Out: N

In: Moving on to the next molecule: N#C/C(=C\c1ccc(N2CCOCC2)o1)C(=O)N1CCOCC1
Out: Y

In: Moving on to the next molecule: O=C(Cn1c(=O)c2cccn2c2cccnc21)N1CCN(c2ccc(Cl)cc2)CC1
Out: N

In: Moving on to the next molecule: O=C(CC12CC3CC(CC(C3)C1)C2)NC(Cc1ccccc1)C(=O)O (centres undefined)
Out: N

In: Moving on to the next molecule: Cc1cc(N)n2nc(C)c(-c3ccccc3)c2n1
Out: N

In: Moving on to the next molecule: CCOC(=O)c1c(C)[nH]c(C)c1S(=O)(=O)NCCN1CCN(c2cc(Cl)ccc2C)CC1
Out: N

In: Moving on to the next molecule: COC(=O)C1=C(C)N(Cc2ccccc2)C(=O)N[C@H]1c1cccc(C(F)(F)F)c1
Out: N

In: Moving on to the next molecule: N=C1SCC(=O)N1c1ncc(Cc2ccc(F)cc2)s1
Out: N

In: Moving on to the next molecule: COCCN=C1N[C@@H](c2cccc(C(F)(F)F)c2)C(C(=O)OC)=C(C)N1Cc1ccccc1
Out: N

In: Moving on to the next molecule: O=C1CSC(c2ccc(Cl)cc2Cl)N1c1ccccn1 (centres undefined)
Out: N

In: Moving on to the next molecule: CC1CCN(CCc2nc3cc(NS(=O)(=O)c4ccccc4)ccc3n2C)CC1
Out: N

In: Moving on to the next molecule: COc1cc(NC(=O)c2cc(C)no2)cc(OC)c1OC
Out: N

In: Moving on to the next molecule: CC(Nc1c([N+](=O)[O-])c(=O)oc2ccccc12)C(Cl)c1ccccc1 (centres undefined)
Out: N

In: Moving on to the next molecule: Cc1cc(C(F)(F)F)n(-c2nc(C(=O)N/N=C/c3ccc(F)cc3)cs2)n1
Out: N

In: Moving on to the next molecule: CC(Nc1c([N+](=O)[O-])c(=O)oc2ccccc12)c1ccccc1 (centres undefined)
Out: N

In: Moving on to the next molecule: Cc1ccc(-c2noc(CSc3nnc(Cc4cccs4)n3-c3ccccc3)n2)cc1
Out: N

In: Moving on to the next molecule: CCOc1cccc(OCCNC2CCCC2)c1
Out: N

In: Moving on to the next molecule: CC(C)(C)c1nn(-c2ccccc2)c2[nH]c(=O)c(CNc3ccc4c(c3)OCCO4)cc12
Out: N

In: Moving on to the next molecule: CC1=NOC(=O)/C1=C/c1ccc(-c2ccc(Cl)cc2)o1
Out: N

In: Moving on to the next molecule: N=C1SCC(=O)N1c1ncc(Cc2ccccc2Cl)s1
Out: N

In: Moving on to the next molecule: CCC(NS(=O)(=O)c1ccc2c(c1)NC(=O)C(C)C(=O)N2)c1cccs1 (centres undefined)
Out: N

In: Moving on to the next molecule: Cc1cc(C)n(CC(=O)N/N=C/c2cccs2)n1
Out: N
